Origin of the recorded values: paper PMC10891134

- System tested: RutR AcK7/11 K7AcK;K11AcK (Escherichia coli K12?) (UniProt P0ACU2)
- Sequence (P0ACU2 whole entry): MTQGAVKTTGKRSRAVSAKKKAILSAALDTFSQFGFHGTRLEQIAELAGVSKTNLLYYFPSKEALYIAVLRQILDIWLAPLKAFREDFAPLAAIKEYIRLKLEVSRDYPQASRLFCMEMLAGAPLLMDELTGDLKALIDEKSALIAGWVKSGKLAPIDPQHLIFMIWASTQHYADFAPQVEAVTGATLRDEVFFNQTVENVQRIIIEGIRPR
- Test: ITC
- Cond: ITC: 100 mM potassium phosphate pH 6.4, 150 mM NaCl, 5 mM MgCl2, 2 mM b-ME, 20 or 25 C; SPR: 100 mM potassium phosphate pH 6.4, 300 mM NaCl, 0.05% Tween20 …
pKd: −log10 of the molar value.
Collected pKd values appear next to each entry.
Readout type: pKd

In [3]: df
Out[3]:
                                   residues  measured_number
0  GTTTTATGTGCAACTGTTTTGACCGTTTAGTCCACTTTTTACCAGATATTTTAG (double strand) [boxrutA]             6.60
1  GTTTTAATGTAAATTTTGACCATTTGGTCCACTTTTTTCTGCTCGT (double strand) [boxcarA]             6.52
